system.name: T1, recombinant human integrin α5β1 (R&D) (human, UniProt P08648 42-995; P05556 21-728)
T1 construct: Bought recombinant heterodimer (R&D); It was used coated on plates and in solution in the phage ELISA, and as analyte or immobilized in BIAcore; also called alpha5beta1; a5b1
experiment.description: phage competition ELISA: Fab-phage incubated with serially diluted soluble human integrin α5β1, unbound phage captured on plate-coated integrin α5β1, anti-M13-HRP, A450
Measured IC50 (read off the curve) of individual entries
Respond numerically; units are nM and should not be typed.

# binder, reading.unit, IC50 (read off the curve)
measured = [
    ("CDR-H2:N62S (Fab, part only; not given: VH end, constant domains, phage fusion, V domains shown, not shown: another chain or arm of the molecule; a dimerising Fc or GST; large carriers) VL: DIQMTQSPSSLSASVGDRVTITCKASQNVGSDVAWYQQKPGKAPKTLIYSTSYRYSGVPSRFSGSGSGTDFTLTISSLQPEDFATYYCQQYNSYPFTFGQGTKVEIK VH: EVQLVESGGGLVQPGGSLRLSCAASGYTFTDYYLYWVRQAPGKGLEWIGGISPSNGGTTFNDSFENKATLSVDKSKNTAYLQMNSLRAEDTAVYYCTRDAYGDWYFDVWGQGT", "nM", 0.1),
]

Problem: Which IC50 (read off the curve) is reported for this binder? h7H5.v1 (Fab, part only; not given: VH end, constant domains, phage fusion, V domains shown, not shown: another chain or arm of the molecule; large carriers) VL: DIQMTQSPSSLSASVGDRVTITCKASQNVGSDVAWYQQKPGKAPKTLIYSTSYRYSGVPSRFSGSGSGTDFTLTISSLQPEDFATYYCQQYNSYPFTFGQGTKVEIK VH: EVQLVESGGGLVQPGGSLRLSCAASGYTFTDYYLYWVRQAPGKGLEWIGGISPSNGGTTFNDNFENKATLSVDKSKNTAYLQMNSLRAEDTAVYYCTRDAYGDWYFDVWGQGT
Result: 0.05
